Attribution: ChEMBL document CHEMBL4342476

// values below are reported pIC50
# tgt: Receptor-interacting serine/threonine-protein kinase 2 (Homo sapiens, UniProt O43353)
# Sequence (O43353 whole entry): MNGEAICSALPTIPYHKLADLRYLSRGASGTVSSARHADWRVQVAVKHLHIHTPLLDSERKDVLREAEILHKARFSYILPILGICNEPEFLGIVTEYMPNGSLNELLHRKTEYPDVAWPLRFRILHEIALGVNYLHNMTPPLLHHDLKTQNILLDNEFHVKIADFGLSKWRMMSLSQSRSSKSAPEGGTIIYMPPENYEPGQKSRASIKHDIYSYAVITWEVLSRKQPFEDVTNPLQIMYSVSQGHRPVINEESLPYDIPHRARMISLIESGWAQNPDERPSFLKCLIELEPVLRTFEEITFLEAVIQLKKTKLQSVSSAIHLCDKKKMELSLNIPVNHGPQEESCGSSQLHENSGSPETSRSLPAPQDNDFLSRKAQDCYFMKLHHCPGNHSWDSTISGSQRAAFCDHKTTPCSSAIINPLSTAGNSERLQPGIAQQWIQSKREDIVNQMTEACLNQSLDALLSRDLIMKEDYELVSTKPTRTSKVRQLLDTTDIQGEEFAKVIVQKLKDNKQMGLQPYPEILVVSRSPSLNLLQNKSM
# measurement.description: Displacement of fluorescein labeled ATP probe from His/GST-tagged RIPK2 (unknown origin) incubated for 60 mins by HTRF assay
pIC50: −log10 of the molar value.

Examples from the recorded data:
Cc1c(NC(=O)c2cccn(-c3ccc(F)cc3)c2=O)ccc(Oc2ccncc2)c1C = < 4.82
O=C(Nc1ccc(Oc2ccncc2)c(F)c1)c1cccc(-c2ccc(F)cc2)c1 = < 4.82
O=C(Nc1ccc(Oc2ccncc2)c2ccccc12)c1cccn(-c2ccc(F)cc2)c1=O = < 4.82
O=C(Nc1ccc(Oc2ccncc2)c(F)c1)c1cccn(-c2ccc(F)cc2)c1=O = < 4.82
Cc1c(NC(=O)c2cccn(-c3ccc(F)cc3)c2=O)ccc(Oc2ccnc(NC(=O)C3CC3)c2)c1C = < 5.00

# input for lookup
Inquiry: // lookup pIC50 for O=C(Nc1ccc(Oc2ccnc3[nH]ccc23)c(F)c1)c1cccn(-c2ccc(F)cc2)c1=O
Reply text: < 4.82
